The measured values listed here are drawn from patent US11098038B2.

system: A549/ATCC; test: NCI 60 screen, A549/ATCC; assay type: cell-based; conditions: Homo sapiens, Non-Small Cell Lung
The compounds listed here are annotated with their GI50.
# number only, unit µM dropped from output

• O=C(Cc1ccc(/C=C/C(=O)c2ncc[nH]2)cc1)Nc1ccc(C(F)(F)F)cc1 = 6.37

Continue with the next compound.
-- ask Send back A549/ATCC GI50 of "O=C(Cc1ccc(/C=C/C(=O)c2ncc[nH]2)cc1)Nc1ccc(F)cc1" only.
-- reply 6.94

----------
Entries annotated with measured GI50
test system: MOLT-4
Field format: number, assumed µM, no unit text.

Some molecules with recorded GI50:
* Cc1ccc(NC(=O)Cc2ccc(/C=C/C(=O)c3ncc[nH]3)cc2)cc1 [Compound 20] | 5.33
* CCn1ccnc1C(=O)/C=C/c1ccc(CC(=O)Nc2ccc(F)cc2)cc1 [Compound 31] | 5.28
* Cn1ccnc1C(=O)/C=C/c1ccc(CC(=O)Nc2ccc(Cl)cc2)cc1 [Compound 30] | 1.74

-- ask State its GI50 for this molecule: O=C(Cc1ccc(/C=C/C(=O)c2ncc[nH]2)cc1)Nc1ccc(C(F)(F)F)cc1 [Compound 24]
-- reply 2.29

-- ask Let me know recorded GI50 for O=C(Cc1ccc(/C=C/C(=O)c2ncc[nH]2)cc1)Nc1ccc(Cl)cc1 [Compound 25] , thanks.
-- reply 1.8

-- ask Specify measured GI50 for O=C(Cc1ccc(/C=C/C(=O)c2ncc[nH]2)cc1)Nc1ccc(F)cc1 [Compound 22] .
-- reply 5.74

-- ask Dear colleague, please send me the reported GI50 for Cn1ccnc1C(=O)/C=C/c1ccc(CC(=O)Nc2ccccc2)cc1 [Compound 27] when you can.
-- reply 4.3

-- ask Return value of GI50 for input Cn1ccnc1C(=O)/C=C/c1ccc(CC(=O)Nc2ccc(F)cc2)cc1 [Compound 28] , no commentary.
-- reply 2.32

----------
Read-out record for EKVX: GI50
Don't forget the unit after the value.

Some compounds with recorded GI50:
- Cc1ccc(NC(=O)Cc2ccc(/C=C/C(=O)c3ncc[nH]3)cc2)cc1: 1.35 µM
- Cn1ccnc1C(=O)/C=C/c1ccc(CC(=O)Nc2ccccc2)cc1: 6.28 µM
- CCn1ccnc1C(=O)/C=C/c1ccc(CC(=O)Nc2ccc(F)cc2)cc1: 3.59 µM
- O=C(Cc1ccc(/C=C/C(=O)c2ncc[nH]2)cc1)Nc1ccc(C(F)(F)F)cc1: 5.57 µM

-- ask Write down measured GI50 (EKVX) for this compound. "O=C(Cc1ccc(/C=C/C(=O)c2ncc[nH]2)cc1)Nc1ccc(F)cc1"
-- reply 7.46 µM

-- ask State measured GI50 of the compound "Cn1ccnc1C(=O)/C=C/c1ccc(CC(=O)Nc2ccc(Cl)cc2)cc1" with EKVX.
-- reply 1.56 µM

-- ask # lookup: EKVX GI50, key = "Cn1ccnc1C(=O)/C=C/c1ccc(CC(=O)Nc2ccc(F)cc2)cc1"
-- reply 5.5 µM

-- ask Provide measured GI50 on EKVX for "O=C(Cc1ccc(/C=C/C(=O)c2ncc[nH]2)cc1)Nc1ccc(Cl)cc1" please.
-- reply 5.68 µM

----------
GI50 by entry:
tested on: SNB-75
Give a bare numeral; the unit nM is implied.

- O=C(Cc1ccc(/C=C/C(=O)c2ncc[nH]2)cc1)Nc1ccc(C(F)(F)F)cc1: 3970
- O=C(Cc1ccc(/C=C/C(=O)c2ncc[nH]2)cc1)Nc1ccc(F)cc1: 1110

Let's switch to this compound now.
-- ask Quote GI50 reported for "Cn1ccnc1C(=O)/C=C/c1ccc(CC(=O)Nc2ccc(Cl)cc2)cc1" please.
-- reply 1900
